- experimental.target: VPS34 (Homo sapiens)
- Sequence (Q8NEB9 whole entry): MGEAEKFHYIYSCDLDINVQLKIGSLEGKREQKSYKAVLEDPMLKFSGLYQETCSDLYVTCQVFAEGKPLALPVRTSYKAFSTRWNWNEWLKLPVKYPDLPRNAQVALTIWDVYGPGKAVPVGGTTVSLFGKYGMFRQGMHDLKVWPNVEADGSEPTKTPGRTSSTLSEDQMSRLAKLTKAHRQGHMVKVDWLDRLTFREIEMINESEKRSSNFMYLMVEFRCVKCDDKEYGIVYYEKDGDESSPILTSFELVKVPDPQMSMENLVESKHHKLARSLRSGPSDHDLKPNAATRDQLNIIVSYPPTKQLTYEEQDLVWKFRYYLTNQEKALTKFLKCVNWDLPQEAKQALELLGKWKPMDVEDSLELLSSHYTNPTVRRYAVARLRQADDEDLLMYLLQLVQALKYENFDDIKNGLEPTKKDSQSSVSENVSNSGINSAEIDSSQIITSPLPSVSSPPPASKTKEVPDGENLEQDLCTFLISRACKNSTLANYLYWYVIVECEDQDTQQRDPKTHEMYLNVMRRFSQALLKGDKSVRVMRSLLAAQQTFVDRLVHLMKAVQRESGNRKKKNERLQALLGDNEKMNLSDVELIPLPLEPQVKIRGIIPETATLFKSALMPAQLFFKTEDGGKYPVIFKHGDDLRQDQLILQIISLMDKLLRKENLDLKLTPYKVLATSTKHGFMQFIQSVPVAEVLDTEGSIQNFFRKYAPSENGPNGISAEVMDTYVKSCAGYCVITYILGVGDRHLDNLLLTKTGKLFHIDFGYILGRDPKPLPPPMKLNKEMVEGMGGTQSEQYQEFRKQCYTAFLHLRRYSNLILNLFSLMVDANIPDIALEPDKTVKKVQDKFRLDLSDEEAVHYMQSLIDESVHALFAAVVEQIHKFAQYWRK
- assay.procedure: VPS34 ADP Hunter Plus kinase activity assay
- settings: IC50 against VPS34, resynthesized sample
assay.readout: pIC50
Note on units: pIC50 is unitless, being -log10 of a concentration expressed in mol/L.

Prompt line: # lookup: pIC50 of O=S(=O)(c1ccc(-c2ccnc3[nH]ccc23)cc1)N1CCCC1 [GSK846226A]
Response line: 5.92

* * *

- experimental.target: ULK1 (Homo sapiens)
- Construct: purchased MRC PPU Reagents and Services, Dundee, Scotland
- Sequence (O75385 whole entry): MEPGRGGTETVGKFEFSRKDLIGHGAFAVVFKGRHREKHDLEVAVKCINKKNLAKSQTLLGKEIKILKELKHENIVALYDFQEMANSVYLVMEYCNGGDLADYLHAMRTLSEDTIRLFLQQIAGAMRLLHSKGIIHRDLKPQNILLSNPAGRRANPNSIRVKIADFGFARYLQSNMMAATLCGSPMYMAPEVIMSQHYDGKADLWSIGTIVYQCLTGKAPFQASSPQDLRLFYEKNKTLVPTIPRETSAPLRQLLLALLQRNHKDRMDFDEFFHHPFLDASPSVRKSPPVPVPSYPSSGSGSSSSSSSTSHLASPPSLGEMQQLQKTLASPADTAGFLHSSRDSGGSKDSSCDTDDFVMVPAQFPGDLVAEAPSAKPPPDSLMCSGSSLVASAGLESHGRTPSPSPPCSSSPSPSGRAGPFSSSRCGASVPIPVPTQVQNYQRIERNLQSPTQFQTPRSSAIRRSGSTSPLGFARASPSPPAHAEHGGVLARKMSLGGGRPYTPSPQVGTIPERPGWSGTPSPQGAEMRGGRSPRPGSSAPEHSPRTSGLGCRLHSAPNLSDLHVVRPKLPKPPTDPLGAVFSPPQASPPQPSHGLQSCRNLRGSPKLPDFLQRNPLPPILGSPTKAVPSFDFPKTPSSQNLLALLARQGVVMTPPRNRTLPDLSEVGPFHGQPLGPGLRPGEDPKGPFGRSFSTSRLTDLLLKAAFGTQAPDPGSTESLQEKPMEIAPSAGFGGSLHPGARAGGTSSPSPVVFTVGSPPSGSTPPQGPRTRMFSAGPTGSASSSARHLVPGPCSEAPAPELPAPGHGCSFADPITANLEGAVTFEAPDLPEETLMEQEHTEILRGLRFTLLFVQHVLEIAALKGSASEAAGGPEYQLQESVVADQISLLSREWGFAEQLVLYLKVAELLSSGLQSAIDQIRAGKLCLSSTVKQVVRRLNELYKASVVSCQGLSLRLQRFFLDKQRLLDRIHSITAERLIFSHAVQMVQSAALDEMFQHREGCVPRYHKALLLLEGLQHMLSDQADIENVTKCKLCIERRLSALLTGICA
- assay.procedure: ULK1 ADP Hunter Plus kinase activity assay
- Type: biochemical
- settings: resynthesized samples; mean potency in parenthesis, n = 5; read-out: IC50 against ULK1 (converted)
assay.readout: IC50 (nM)
Respond with the bare value in nM.

Please review the entries below; each comes with its answer.
O=S(=O)(c1ccc(-c2ccnc3[nH]ccc23)cc1)N1CCCC1 [GSK846226A] : 603
O=C1Nc2ccc(-c3cccnc3)cc2C1=Cc1cc(Br)c(O)c(Br)c1 [GW429374A] : 8710

Next item in the queue.
Prompt line: Given COc1cc(Nc2ncc3c(C)nc(-c4cccc(C(F)(F)F)c4)n3n2)cc(OC)c1OC [GW837331X] , state its recorded IC50.
Response line: 646

* * *

- experimental.target: VPS34 (Homo sapiens)
- assay.procedure: VPS34 ADP Hunter Plus kinase activity assay
- settings: IC50 against VPS34, resynthesized samples; mean potency in parenthesis, n = 5
Entries annotated with measured pIC50
As a rule, pIC50 stands for the negative log10 of the concentration, concentration in M.

O=C1Nc2ccc(C(=O)c3ccco3)cc2C1=Cc1cc(Cl)c(O)c(Cl)c1 [GW406108X] : 6.34

Turning now to a further molecule:
Prompt line: Test system VPS34 (Homo sapiens); read-out pIC50; what value for O=S(=O)(c1ccc(-c2ccnc3[nH]ccc23)cc1)N1CCCC1 [GSK846226A] ?
Response line: 5.92

* * *

- experimental.target: AMPK α1β2ɣ1 (Homo sapiens, UniProt O43741+P54619+Q13131)
- Sequence (Q13131 whole entry): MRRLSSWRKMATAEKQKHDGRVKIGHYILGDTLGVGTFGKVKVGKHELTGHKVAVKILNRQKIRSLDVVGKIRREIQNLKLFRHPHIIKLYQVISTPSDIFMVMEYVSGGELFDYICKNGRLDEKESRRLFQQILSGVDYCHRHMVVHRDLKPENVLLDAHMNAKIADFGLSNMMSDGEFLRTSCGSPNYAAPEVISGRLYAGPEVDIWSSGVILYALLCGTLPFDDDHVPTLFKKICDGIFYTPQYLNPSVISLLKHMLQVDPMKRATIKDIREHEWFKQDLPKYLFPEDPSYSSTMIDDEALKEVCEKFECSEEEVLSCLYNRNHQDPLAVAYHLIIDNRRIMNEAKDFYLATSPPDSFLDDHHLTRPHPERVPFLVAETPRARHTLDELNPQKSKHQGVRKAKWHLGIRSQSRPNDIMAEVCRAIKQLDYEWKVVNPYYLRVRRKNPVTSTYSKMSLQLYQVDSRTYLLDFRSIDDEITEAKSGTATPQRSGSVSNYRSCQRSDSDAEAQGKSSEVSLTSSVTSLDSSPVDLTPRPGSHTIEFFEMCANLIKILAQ
- Sequence (O43741 whole entry partner): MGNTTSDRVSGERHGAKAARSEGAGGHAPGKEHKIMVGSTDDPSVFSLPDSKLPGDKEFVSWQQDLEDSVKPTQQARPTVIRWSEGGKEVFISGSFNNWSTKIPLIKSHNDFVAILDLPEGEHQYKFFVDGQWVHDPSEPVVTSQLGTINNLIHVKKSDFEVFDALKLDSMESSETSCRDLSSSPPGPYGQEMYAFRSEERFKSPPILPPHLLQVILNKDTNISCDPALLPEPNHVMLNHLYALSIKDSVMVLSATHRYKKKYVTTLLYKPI
- Sequence (P54619 whole entry partner): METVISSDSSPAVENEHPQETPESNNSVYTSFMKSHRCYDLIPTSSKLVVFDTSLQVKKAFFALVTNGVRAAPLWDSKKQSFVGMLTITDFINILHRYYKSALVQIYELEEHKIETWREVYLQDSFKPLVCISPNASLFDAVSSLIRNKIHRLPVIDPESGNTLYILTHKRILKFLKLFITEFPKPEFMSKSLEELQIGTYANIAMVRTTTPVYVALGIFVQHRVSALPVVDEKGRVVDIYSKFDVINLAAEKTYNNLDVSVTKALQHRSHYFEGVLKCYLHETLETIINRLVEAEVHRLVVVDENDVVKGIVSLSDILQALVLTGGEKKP
- assay.procedure: AMPK ADP Hunter Plus kinase activity assay
Reported IC50 values for the following compounds.
Form entry: value (nM) — number only.

Prompt line: // map CC(C)(CO)CNC(=O)c1ccc2c(c1)/C(=N/Nc1ccc(S(N)(=O)=O)cc1)C(=O)N2 [GW301784X] to recorded IC50 (system: AMPK α1β2ɣ1 (Homo sapiens, UniProt O43741+P54619+Q13131))
Response line: 347

Prompt line: Same thing, different compound: O=C1Nc2ccc(-c3cccnc3)cc2C1=Cc1cc(Br)c(O)c(Br)c1 [GW429374A]
Response line: 3160

Prompt line: Would you kindly repeat that for O=S(=O)(c1ccc(-c2ccnc3[nH]ccc23)cc1)N1CCCC1 [GSK846226A] ?
Response line: 2510

Prompt line: COc1cc(Nc2ncc3c(C)nc(-c4cccc(C(F)(F)F)c4)n3n2)cc(OC)c1OC [GW837331X] ?
Response line: 2340
